FYI, the data here is from patent US10934303B2.

testSettings: 1 μM, 30 minutes, 37° C., NADPH
reportedEndpoint: MS(Microsomal Stability) (%) human
Just the number please, in %, no unit attached.

// lookup MS(Microsomal Stability) (%) human for CCN1CCN(c2ccc(/C(=C(/CCCO)c3ccccc3)c3ccc(C)cc3)cc2)CC1 [Compound 18j]
67.9

Another compound: OCCC/C(=C(\c1ccc(O)cc1)c1ccc(C2CCN(C3CC3)CC2)cc1)c1ccccc1 [Compound 22i]
36.0

// repeat for OCCC/C(=C(\c1ccc(O)cc1)c1ccc(OCCN2C[C@H]3C[C@H]3[C@H]2CO)cc1)c1ccccc1 [Compound 38d] and report
6.9

Next:
Entry Cc1ccc(/C(=C(\CCCO)c2ccccc2)c2ccc(C3CCN(C)CC3)cc2)cc1 [Compound 22f] has what MS(Microsomal Stability) (%) human?
97.0

Try this compound next: CC(C)N1CCN(c2ccc(/C(=C(/CCCO)c3ccccc3)c3ccc(NS(C)(=O)=O)cc3)cc2)CC1 [Compound 27a]
66.2

###

testSettings: 1 μM, 30 minutes, 37° C., NADPH
reportedEndpoint: MS(Microsomal Stability) (%) human
Your answer is read as %, so omit the unit and give the number.

Consider the worked cases shown below.
Quick one: MS(Microsomal Stability) (%) human of OCCC/C(=C(\c1ccc(O)cc1)c1ccc(C2CN(C3CC3)C2)cc1)c1ccccc1 [Compound 22d] ?
57.6

How about CCN1CCC(c2ccc(C(=C(CCCO)c3ccccc3)c3cccc(O)c3)cc2)CC1 [Compound 22ae] ?
48.4

Next up: OCCC/C(=C(\c1ccc(O)cc1)c1ccc(N2CCNCC2)cc1)c1ccccc1 [Compound 20j]
76.8

// repeat for OCCC/C(=C(/c1ccc(C2=CCN(C3CC3)CC2)cc1)c1cccc(O)c1)c1ccccc1 [Compound 22l] and report
71.8

Moving on to the next molecule: CN1CCCC1CCOc1ccc(/C(=C(/CCCO)c2ccccc2)c2ccc(Br)cc2)cc1 (centres unmarked) [Compound 13d]
67.3

Now consider CC(C)N1CCC(c2ccc(/C(=C(/CCCO)c3ccccc3)c3cccc(O)c3)cc2)CC1 [Compound 22m] .
55.3

---
Entry under review: CC(C)N1CCC(c2ccc(/C(=C(/CCCO)c3ccccc3)c3ccc(O)cc3)cc2)CC1 [Compound 22k] . Reported MS(Microsomal Stability) (%) human?
59.7

###

testedOn: CYP1A2 (Homo sapiens (Human))
Sequence (P05177 whole entry): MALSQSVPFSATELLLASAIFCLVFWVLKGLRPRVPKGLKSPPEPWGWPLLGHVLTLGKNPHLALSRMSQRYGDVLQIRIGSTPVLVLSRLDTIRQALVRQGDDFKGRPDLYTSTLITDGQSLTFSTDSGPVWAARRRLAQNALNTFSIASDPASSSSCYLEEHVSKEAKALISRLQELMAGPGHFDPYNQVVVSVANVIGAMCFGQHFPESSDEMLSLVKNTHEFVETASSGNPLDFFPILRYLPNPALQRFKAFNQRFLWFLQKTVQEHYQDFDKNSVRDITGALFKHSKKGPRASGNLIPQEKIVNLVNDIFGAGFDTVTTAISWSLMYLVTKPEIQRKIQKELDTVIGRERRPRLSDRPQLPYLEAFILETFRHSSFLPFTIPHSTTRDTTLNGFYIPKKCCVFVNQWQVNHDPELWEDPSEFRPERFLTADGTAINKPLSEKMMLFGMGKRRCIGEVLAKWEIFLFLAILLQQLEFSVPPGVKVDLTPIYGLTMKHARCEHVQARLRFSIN
procedureText: Cytochrome P450 activity inhibition, CYP1A2
Format: in vitro ADME
testSettings: 10 μM, human liver microsomes, Phenacetin substrate
Each item that follows carries a reported CYP inhibition (% of control) 1A2.

Worked set:
Kindly state the measured CYP inhibition (% of control) 1A2 obtained for Cc1ccc(/C(=C(\CCCO)c2ccccc2)c2ccc(N3CCN(C)CC3)cc2)cc1 [Compound 18f] with CYP1A2 (Homo sapiens (Human)).
>100 % of control

Input OCCC/C(=C(\c1ccc(O)cc1)c1ccc(C2=CCN(C3CC3)CC2)cc1)c1ccccc1 [Compound 22j]
95.7 % of control

Please answer likewise for OCCC/C(=C(\c1ccc(O)cc1)c1ccc(N2CCNCC2)cc1)c1ccccc1 [Compound 20j]
93.6 % of control

Here is the next item to consider.
What value of CYP inhibition (% of control) 1A2 on CYP1A2 (Homo sapiens (Human)) does OCCC/C(=C(\c1ccc(O)cc1)c1ccc(N2CCN(C3CCCCC3)CC2)cc1)c1ccccc1 [Compound 22p] have?
88.1 % of control

###

testSettings: 1 μM, 30 minutes, 37° C., NADPH
If the reported MS(Microsomal Stability) (%) dog equals or exceeds 60%, assign label 1. If not, assign label 0.

These recorded examples may help you get a feel for the data.
Answer whether MS(Microsomal Stability) (%) dog of CC(C)N1CCC(c2ccc(/C(=C(/CCCO)c3ccccc3)c3cccc(O)c3)cc2)C1 (racemic) [Compound 22u] is greater than or equal to 60%.
label 0

Further, for OCCC/C(=C(/c1ccc(C2CCN(C3CC3)CC2)cc1)c1cccc(O)c1)c1ccccc1 [Compound 22r] ?
label 0

// next record OCCC/C(=C(/c1ccc(C2=CCN(C3CC3)CC2)cc1)c1cccc(O)c1)c1ccccc1 [Compound 22l]
label 1

Would you mind doing Nc1ccc(/C(=C(\CCCO)c2ccccc2)c2ccc(C3CCN(C4CC4)CC3)cc2)cc1 [Compound 26d] as well?
label 0

One more compound: CC(C)N1CCC(c2ccc(/C(=C(/CCCO)c3ccccc3)c3ccc(O)cc3)cc2)CC1 [Compound 22g]
label 0

Next entry: CC(C)N1CCC(c2ccc(/C(=C(/CCCO)c3ccccc3)c3cccc(O)c3)cc2)CC1 [Compound 22m]
label 0

---
Check this compound for MS(Microsomal Stability) (%) dog at or above 60%: OCCC/C(=C(\c1ccc(O)cc1)c1ccc(N2CCN(C3CCC3)CC2)cc1)c1ccccc1 [Compound 22q]
label 0

Would you kindly repeat that for CC(=O)Nc1ccc(/C(=C(\CCCOC(C)=O)c2ccccc2)c2ccc(C3CCN(C4CC4)CC3)cc2)cc1 [Compound 27d] ?
label 0

Next: OCCC/C(=C(\c1ccc(O)cc1)c1ccc(C2=CCN(C3CC3)CC2)cc1)c1ccccc1 [Compound 22j]
label 0

###

testedOn: GST-bound ER alpha ligand-binding domain (LBD) (Homo sapiens (Human), UniProt P03372)
Sequence (P03372 whole entry, looked up, the tested form may be a part): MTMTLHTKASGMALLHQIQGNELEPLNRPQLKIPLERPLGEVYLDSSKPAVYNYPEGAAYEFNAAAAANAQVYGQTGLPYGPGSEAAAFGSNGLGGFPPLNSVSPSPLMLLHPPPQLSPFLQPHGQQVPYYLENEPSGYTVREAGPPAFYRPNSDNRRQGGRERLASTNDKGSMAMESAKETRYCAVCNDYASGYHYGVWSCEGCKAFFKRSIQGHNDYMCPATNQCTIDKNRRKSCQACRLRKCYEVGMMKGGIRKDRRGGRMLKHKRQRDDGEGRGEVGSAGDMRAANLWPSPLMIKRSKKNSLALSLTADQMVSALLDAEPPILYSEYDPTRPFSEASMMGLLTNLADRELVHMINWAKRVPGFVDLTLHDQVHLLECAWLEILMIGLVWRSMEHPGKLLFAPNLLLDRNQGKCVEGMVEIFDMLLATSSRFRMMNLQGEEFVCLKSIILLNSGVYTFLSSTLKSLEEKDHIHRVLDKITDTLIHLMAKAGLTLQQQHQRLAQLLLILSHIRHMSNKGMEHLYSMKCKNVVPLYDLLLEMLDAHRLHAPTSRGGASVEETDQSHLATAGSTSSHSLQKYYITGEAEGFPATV
procedureText: biochemical
testSettings: TR-FRET, beta-estradiol 4 nM as agonist; read-out: Binding Assay, IC50 ERα
Below: a set of entries, each annotated with reported IC50.
Just the number please, in nM, no unit attached.

Reference set (3 entries):
What IC50 appears in the records for this molecule with GST-bound ER alpha ligand-binding domain (LBD) (Homo sapiens (Human), UniProt P03372)? CN1CCN(c2ccc(/C(=C(/CCCO)c3ccccc3)c3ccc(O)cc3)cc2)CC1 [Compound 18d]
1700

Ok, now CC(C)N1CCC(c2ccc(/C(=C(/CCCO)c3ccccc3)c3ccc(O)cc3)cc2)CC1 [Compound 22k]
1380

Next molecule: OCCC/C(=C(\c1ccc(O)cc1)c1ccc(OCCN2CCCCC2)cc1)c1ccccc1
262

New cases:
Lab request: please report IC50 under test system GST-bound ER alpha ligand-binding domain (LBD) (Homo sapiens (Human), UniProt P03372) for OCCC/C(=C(\c1ccc(O)cc1)c1ccc(OCCN2CC2)cc1)c1ccccc1
296

Follow-up item: CCN1CCN(c2ccc(/C(=C(/CCCO)c3ccccc3)c3ccc(O)cc3)cc2)CC1 [Compound 18i]
1140

###

testSettings: 1 μM, 30 minutes, 37° C., NADPH
reportedEndpoint: MS(Microsomal Stability) (%) human
Phrase the answer as number then unit, nothing more needed.

// below: answered compounds
Fill in the blank: the reported MS(Microsomal Stability) (%) human of Cc1ccc(/C(=C(\CCCO)c2ccccc2)c2ccc(C3CCNCC3)cc2)cc1 [Compound 20k] is ____.
93.6%

What about this compound? Cc1ccc(/C(=C(\CCCO)c2ccccc2)c2ccc(N3CCN(C)CC3)cc2)cc1 [Compound 18f]
79.2%

Quick one: CN1CCC[C@H]1COc1ccc(/C(=C(/CCCO)c2ccccc2)c2ccc(Br)cc2)cc1 [Compound 13b]
61.2%

Further cases:
Item OCCC/C(=C(/c1ccc(C2CCN(C3CC3)CC2)cc1)c1cccc(O)c1)c1ccccc1 [Compound 22r] has what recorded MS(Microsomal Stability) (%) human?
62.0%

Field entry: CN1CCN(c2ccc(/C(=C(/CCCO)c3ccccc3)c3ccc([N+](=O)[O-])cc3)cc2)CC1 [Compound 18c]
96.9%

Ok, now CC(C)N1CCC(c2ccc(/C(=C(/CCCO)c3ccccc3)c3ccc(O)cc3)cc2)CC1 [Compound 22g]
42.8%

And what about the compound CC(C)N1CCC(c2ccc(/C(=C(/CCCO)c3ccccc3)c3cccc(O)c3)cc2)CC1 [Compound 22h] ?
46.9%

Moving on to Cc1ccc(/C(=C(\CCCO)c2ccccc2)c2ccc(N3CCN(C(C)C)CC3)cc2)cc1 [Compound 18b]
54.2%

###

procedureText: in vitro
Format: in vitro ADME
testSettings: PBS pH 7.4, 25° C., 5 hours
reportedEndpoint: Permeability Pampa

I have this molecule here, Cc1ccc(/C(=C(\CCCO)c2ccccc2)c2ccc(C3CNC3)cc2)cc1 [Compound 20d] , and I need its recorded Permeability Pampa.
0.23 10^−6 cm/s

What do you have for CC(C)N1CCN(c2ccc(C(=C(CCCO)c3ccccc3)c3ccc(O)cc3)cc2)CC1 [Compound 18a] ?
0.46 10^−6 cm/s

More entries:
So what does the record say about Permeability Pampa for Cc1ccc(/C(=C(\CCCO)c2ccccc2)c2ccc(N3CCN(C(C)C)CC3)cc2)cc1 [Compound 18b] ?
2.09 10^−6 cm/s

Next entry: Cc1ccc(/C(=C(\CCCO)c2ccccc2)c2ccc(C3CN(C(C)C)C3)cc2)cc1 [Compound 22e]
6.16 10^−6 cm/s

Try CC(C)N1CCN(c2ccc(/C(=C(/CCCO)c3ccccc3)c3ccc(Br)cc3)cc2)CC1 [Compound 18h] next.
0.37 10^−6 cm/s
